Record form. Attribute: % Retained 60° C.. Fill in for each entry.
# experimental-system: T1, TRCW5 antigen (CD3δε-Fc-Avi) (biotinylated (site not stated))
# T1 construct: also called recombinant CD3
# T1 sequence (chain, as listed by the source mutant limits assumed): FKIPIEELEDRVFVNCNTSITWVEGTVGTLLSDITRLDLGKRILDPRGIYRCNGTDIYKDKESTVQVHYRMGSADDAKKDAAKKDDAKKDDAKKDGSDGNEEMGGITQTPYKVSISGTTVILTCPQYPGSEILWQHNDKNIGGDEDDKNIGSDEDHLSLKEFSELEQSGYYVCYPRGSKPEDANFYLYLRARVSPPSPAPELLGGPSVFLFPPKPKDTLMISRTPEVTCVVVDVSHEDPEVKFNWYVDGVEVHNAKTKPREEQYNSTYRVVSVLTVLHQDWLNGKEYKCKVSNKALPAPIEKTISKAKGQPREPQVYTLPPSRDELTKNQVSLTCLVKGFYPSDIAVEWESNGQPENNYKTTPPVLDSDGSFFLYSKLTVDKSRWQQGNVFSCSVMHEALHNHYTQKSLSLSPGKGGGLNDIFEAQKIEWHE
# test: binding after heat
State the answer as a number, implicitly in %.

Q: Give the measured % Retained 60° C. of CD3B2051 N106P (scFv) scFv: QVQLVQSGAEVKKPGSSVKVSCKASGYTFTRSTMHWVKQAPGQGLEWMGYINPSSAYTNYNQKFQGRVTLTADKSTSTAYMELSSLRSEDTAVYYCASPQVHYDYPGFPYWGQGTLVTVSSGGSEGKSSGSGSESKSTGGSEIVLTQSPATLSASPGERVTLSCSASSSVSYMNWYQQKPGQAPRRLIYDSSKLASGVPARFSGSGSGRDYTLTISSLEPEDFAVYYCQQWSRNPPTFGGGTKVEIK .
A: 32.6

Q: Give the measured % Retained 60° C. of CD3B2051 N106H (scFv) scFv: QVQLVQSGAEVKKPGSSVKVSCKASGYTFTRSTMHWVKQAPGQGLEWMGYINPSSAYTNYNQKFQGRVTLTADKSTSTAYMELSSLRSEDTAVYYCASPQVHYDYHGFPYWGQGTLVTVSSGGSEGKSSGSGSESKSTGGSEIVLTQSPATLSASPGERVTLSCSASSSVSYMNWYQQKPGQAPRRLIYDSSKLASGVPARFSGSGSGRDYTLTISSLEPEDFAVYYCQQWSRNPPTFGGGTKVEIK .
A: 84.2

Q: Give the measured % Retained 60° C. of CD3B2030 N106H (scFv) scFv: QVQLVQSGAEVKKPGSSVKVSCKASGYTFTRSTMHWVKQAPGQGLEWIGYINPSSAYTNYNQKFQGRVTLTADKSTSTAYMELSSLRSEDTAVYYCASPQVHYDYHGFPYWGQGTLVTVSSGGSEGKSSGSGSESKSTGGSEIVLTQSPATLSASPGERVTLSCSASSSVSYMNWYQQKPGQAPRRWIYDSSKLASGVPARFSGSGSGRDYTLTISSLEPEDFAVYYCQQWSRNPPTFGGGTKVEIK .
A: 98.9

Q: Give the measured % Retained 60° C. of CD3B2051 N106G (scFv) scFv: QVQLVQSGAEVKKPGSSVKVSCKASGYTFTRSTMHWVKQAPGQGLEWMGYINPSSAYTNYNQKFQGRVTLTADKSTSTAYMELSSLRSEDTAVYYCASPQVHYDYGGFPYWGQGTLVTVSSGGSEGKSSGSGSESKSTGGSEIVLTQSPATLSASPGERVTLSCSASSSVSYMNWYQQKPGQAPRRLIYDSSKLASGVPARFSGSGSGRDYTLTISSLEPEDFAVYYCQQWSRNPPTFGGGTKVEIK .
A: 33.1

Q: Give the measured % Retained 60° C. of CD3B2051 N106S (scFv) scFv: QVQLVQSGAEVKKPGSSVKVSCKASGYTFTRSTMHWVKQAPGQGLEWMGYINPSSAYTNYNQKFQGRVTLTADKSTSTAYMELSSLRSEDTAVYYCASPQVHYDYSGFPYWGQGTLVTVSSGGSEGKSSGSGSESKSTGGSEIVLTQSPATLSASPGERVTLSCSASSSVSYMNWYQQKPGQAPRRLIYDSSKLASGVPARFSGSGSGRDYTLTISSLEPEDFAVYYCQQWSRNPPTFGGGTKVEIK .
A: 70.9

Q: Give the measured % Retained 60° C. of CD3B2089 N106S (scFv) scFv: QVQLVQSGAEVKKPGSSVKVSCKASGYTFTRSTMHWVRQAPGQGLEWMGYINPSSAYTNYAQKFQGRVTLTADKSTSTAYMELSSLRSEDTAVYYCASPQVHYDYSGFPYWGQGTLVTVSSGGSEGKSSGSGSESKSTGGSEIVLTQSPATLSASPGERVTLSCSASSSVSYMNWYQQKPGQAPRRWIYDSSKLASGVPARFSGSGSGRDYTLTISSLEPEDFAVYYCQQWSRNPPTFGGGTKVEIK .
A: 90.2

Q: Give the measured % Retained 60° C. of CD3B2051 N106E (scFv) scFv: QVQLVQSGAEVKKPGSSVKVSCKASGYTFTRSTMHWVKQAPGQGLEWMGYINPSSAYTNYNQKFQGRVTLTADKSTSTAYMELSSLRSEDTAVYYCASPQVHYDYEGFPYWGQGTLVTVSSGGSEGKSSGSGSESKSTGGSEIVLTQSPATLSASPGERVTLSCSASSSVSYMNWYQQKPGQAPRRLIYDSSKLASGVPARFSGSGSGRDYTLTISSLEPEDFAVYYCQQWSRNPPTFGGGTKVEIK .
A: 15.4

Q: Give the measured % Retained 60° C. of CD3B2030 N106K (scFv) scFv: QVQLVQSGAEVKKPGSSVKVSCKASGYTFTRSTMHWVKQAPGQGLEWIGYINPSSAYTNYNQKFQGRVTLTADKSTSTAYMELSSLRSEDTAVYYCASPQVHYDYKGFPYWGQGTLVTVSSGGSEGKSSGSGSESKSTGGSEIVLTQSPATLSASPGERVTLSCSASSSVSYMNWYQQKPGQAPRRWIYDSSKLASGVPARFSGSGSGRDYTLTISSLEPEDFAVYYCQQWSRNPPTFGGGTKVEIK .
A: 87.2

Q: Give the measured % Retained 60° C. of CD3B2051 N106V (scFv) scFv: QVQLVQSGAEVKKPGSSVKVSCKASGYTFTRSTMHWVKQAPGQGLEWMGYINPSSAYTNYNQKFQGRVTLTADKSTSTAYMELSSLRSEDTAVYYCASPQVHYDYVGFPYWGQGTLVTVSSGGSEGKSSGSGSESKSTGGSEIVLTQSPATLSASPGERVTLSCSASSSVSYMNWYQQKPGQAPRRLIYDSSKLASGVPARFSGSGSGRDYTLTISSLEPEDFAVYYCQQWSRNPPTFGGGTKVEIK .
A: 1.4

Q: Give the measured % Retained 60° C. of CD3B2051 N106A (scFv) scFv: QVQLVQSGAEVKKPGSSVKVSCKASGYTFTRSTMHWVKQAPGQGLEWMGYINPSSAYTNYNQKFQGRVTLTADKSTSTAYMELSSLRSEDTAVYYCASPQVHYDYAGFPYWGQGTLVTVSSGGSEGKSSGSGSESKSTGGSEIVLTQSPATLSASPGERVTLSCSASSSVSYMNWYQQKPGQAPRRLIYDSSKLASGVPARFSGSGSGRDYTLTISSLEPEDFAVYYCQQWSRNPPTFGGGTKVEIK .
A: 97

Recorded values, source patent US20250145711A1.
